Organism: Rattus norvegicus
test protocol: DrugMatrix - Regimen: Daily Repeat
Assay type: toxicity, organism-based, Sprague-Dawley
Parameters: regimen Daily Repeat, gender Male, age 6-8 weeks
test settings: in vivo, po, 0 mg/kg, 72 h, tissue Plasma, route oral GAVAGE, dose level Control, time 3 day, […]
Quick reference: CHOLESTEROL of the listed items.
Numbers only; they are read as mg/dL.

compound | CHOLESTEROL, mg/dL
CCCC[C@@H](CC)COC(=O)c1ccccc1C(=O)OC[C@@H](CC)CCCC [BIS(2-ETHYLHEXYL)PHTHALATE] | 68.5

State its CHOLESTEROL: COCc1c(C(C)C)nc(C(C)C)c(/C=C/[C@@H](O)C[C@@H](O)CC(=O)O)c1-c1ccc(F)cc1 69.17

State its CHOLESTEROL: CSc1ccc2c(c1)N(CCC1CCCCN1C)c1ccccc1S2 (stereo unspecified) 68.5

State its CHOLESTEROL: CCCCCCCCCc1ccc(O)cc1 69.17

State its CHOLESTEROL: c1ccc2[nH]c(-c3cscn3)nc2c1 68.5

State its CHOLESTEROL: C=CCN 70.33
